Assay: The drug is tested on Z-026 corresponding to metagenome with ENA study accession number: PRJEB37062 and ENA sample accession number: ERS12561825 for biotransformation under anaerobic condition. The drug concentrations were measured over 9 timepoints collected between 0 and 24 hours of incubation by liquid-chromatography-coupled mass spectrometry (LC–MS); note: call rule not given here
Conditions: 2 µM
ENDPOINT: Bacterial Biotransformation

Solved cases below.
# COMPOUND, Bacterial Biotransformation
data = [
    ("O=C(CCCN1CCC2(CC1)C(=O)NCN2c1ccccc1)c1ccc(F)cc1", "Compound NOT metabolized"),
    ("CC(C)(C)N.CCC[C@H](N[C@@H](C)C(=O)N1[C@H](C(=O)O)C[C@@H]2CCCC[C@@H]21)C(=O)OCC", "Compound NOT metabolized"),
    ("C[C@]12CCC(=O)C=C1[C@@H]1C[C@@H]1[C@H]1[C@@H]3[C@@H]4C[C@@H]4[C@@]4(CCC(=O)O4)[C@@]3(C)CC[C@@H]12", "Compound NOT metabolized"),
    ("COc1ccc([C@@H]2Sc3ccccc3N(CCN(C)C)C(=O)[C@@H]2OC(C)=O)cc1", "Compound NOT metabolized"),
    ("CC(C)[C@H]1CC[C@H](C(=O)N[C@H](Cc2ccccc2)C(=O)O)CC1 [NATEGLINIDE]", "Compound NOT metabolized"),
]

Turning now to a further record.
Query: Name the recorded Bacterial Biotransformation for COc1cc(NC(C)CCCN)c2ncccc2c1.O=P(O)(O)O.O=P(O)(O)O (configuration not stated) [PRIMAQUINE PHOSPHATE] .
Result: Compound NOT metabolized

----------
Assay: The drug is tested on Z-016 corresponding to mouse gut metagenome with ENA study accession number: PRJEB37062 and ENA sample accession number: ERS12561815 for biotransformation under anaerobic condition. The drug concentrations were measured over 9 timepoints collected between 0 and 24 hours of incubation by liquid-chromatography-coupled mass spectrometry (LC–MS)
Conditions: 2 µM
ENDPOINT: Bacterial Biotransformation

Some solved cases for reference:
# MOLECULE, Bacterial Biotransformation
data = [
    ("CC(C)[C@H]1CC[C@H](C(=O)N[C@H](Cc2ccccc2)C(=O)O)CC1 [NATEGLINIDE]", "Compound metabolized"),
    ("CC(=O)OCC(=O)[C@@]1(OC(C)=O)[C@@H](C)C[C@H]2[C@@H]3C[C@H](F)C4=CC(=O)C=C[C@]4(C)[C@@]3(F)[C@@H](O)C[C@@]21C [DIFLORASONE DIACETATE]", "Compound metabolized"),
    ("COc1ccc(CN2CCNCC2)c(OC)c1OC.Cl.Cl [TRIMETAZIDINE DIHYDROCHLORIDE]", "Compound NOT metabolized"),
    ("Cc1cc2c(s1)Nc1ccccc1N=C2N1CCN(C)CC1", "Compound NOT metabolized"),
]

Now consider a different molecule.
Query: Please look up its Bacterial Biotransformation: CN1[C@@H]2CC[C@H]1C[C@@H](OC(=O)c1c[nH]c3ccccc13)C2
Result: Compound NOT metabolized

----------
Assay: The drug is tested on Z-006 corresponding to mouse gut metagenome with ENA study accession number: PRJEB37062 and ENA sample accession number: ERS12561806 for biotransformation under anaerobic condition. The drug concentrations were measured over 9 timepoints collected between 0 and 24 hours of incubation by liquid-chromatography-coupled mass spectrometry (LC–MS)
Details: 2 µM
ENDPOINT: Bacterial Biotransformation

As a guide, the following entries are already answered.
# COMPOUND, ENDPOINT, RESULT
records = [
    ("CN1CCC[C@@H]1CCO[C@](C)(c1ccccc1)c1ccc(Cl)cc1.O=C(O)/C=C/C(=O)O [CLEMASTINE FUMARATE]", "Bacterial Biotransformation", "Compound NOT metabolized"),
    ("CC1Cc2ccccc2N1NC(=O)c1ccc(Cl)c(S(N)(=O)=O)c1 (configuration not stated) [INDAPAMIDE]", "Bacterial Biotransformation", "Compound NOT metabolized"),
    ("N=C(N)NC(=O)Cc1c(Cl)cccc1Cl [GUANFACINE]", "Bacterial Biotransformation", "Compound NOT metabolized"),
    ("CC(=O)O[C@]1(C(C)=O)CC[C@H]2[C@@H]3C=C(C)C4=CC(=O)CC[C@]4(C)[C@H]3CC[C@@]21C [MEGESTROL ACETATE]", "Bacterial Biotransformation", "Compound metabolized"),
    ("CC(C)c1nc(N(C)S(C)(=O)=O)nc(-c2ccc(F)cc2)c1/C=C/[C@@H](O)C[C@@H](O)CC(=O)[O-].CC(C)c1nc(N(C)S(C)(=O)=O)nc(-c2ccc(F)cc2)c1/C=C/[C@@H](O)C[C@@H](O)CC(=O)[O-].[Ca+2] [ROSUVASTATIN CALCIUM]", "Bacterial Biotransformation", "Compound NOT metabolized"),
    ("OCCN(CCO)c1nc(N2CCCCC2)c2nc(N(CCO)CCO)nc(N3CCCCC3)c2n1 [DIPYRIDAMOLE]", "Bacterial Biotransformation", "Compound NOT metabolized"),
]

Query: // lookup Bacterial Biotransformation for CC(C)c1c(CN(C)C(C)Cc2ccccc2)n(C)n(-c2ccccc2)c1=O (configuration not stated) [FAMPROFAZONE]
Result: Compound metabolized

Query: And the next one, CC(=O)OCC(=O)NCCCOc1cccc(CN2CCCCC2)c1 [ROXATIDINE ACETATE] ?
Result: Compound metabolized
